Test system: EKVX NSCLC
assay.summary: NCI-60 one-dose screen, 48 h (100 = growth as untreated, 0 = no growth, -100 = all killed)
protocol.conditions: 10 µM unless noted
About 83,000 compounds went through this panel and 20% of them were active in at least one assay; those are over-represented in the sample as a whole.
A collection of molecules and their measured growth
Kindly provide the numeric value in % only, without the unit symbol.

Known results for molecules:
# molecule, result.type, unit.name, reported.value
measured = [
    ("C#C[C@@]1(O)[C@@H](CO)O[C@@H](n2cc(-c3ccco3)c3c(N)ncnc32)[C@@H]1O", "growth", "%", 67.3),
    ("CCCn1c2cc(OCc3cn(-c4ccc(Cl)cc4)nn3)ccc2c2ccnc(C)c21", "growth", "%", 80.1),
]

IN: Hi! What's the reported growth for Cc1cc(C)cc(Nc2nccc(-c3c(-c4ccc(F)cc4)ncn3C3CCNCC3)n2)c1 on EKVX NSCLC?
OUT: 27.4

IN: Then this molecule: CCC[S@](=O)c1ccc2nc(NC(=O)OC)[nH]c2c1
OUT: 95.3

IN: Query COc1cc(C(C)c2ccc3c(ccn3C)c2)cc(OC)c1OC (stereo not given) next
OUT: 34.9

====

System: MDA-MB-231 breast
assay.summary: NCI-60 one-dose screen, 48 h
protocol.conditions: 10 µM unless noted
This is part of a sample that, as a whole, favours compounds with a hit. Of some 83,000 tested, about 20% had one in any assay. The source made the active and inactive calls. The calls were made as follows: active = growth percent below 10; inactive = the rest.
Respond only with the outcome that fits, drawn from active, inactive

Consider the following illustrative entries.
# compound, qualitative.label
measured = [
    ("C#C[C@@]1(O)[C@@H](CO)O[C@@H](n2cnc3c(-c4ccccc4)ncnc32)[C@@H]1O", "inactive"),
    ("Cc1nc2sc(C(=O)Nc3cccc(Cl)c3C)c(N)c2cc1C(C)O (centres undefined)", "inactive"),
    ("Cn1c2ccccc2c2c(OC(=O)c3ccccc3)c3c(nc21)-c1ccccc1C3", "inactive"),
]

IN: Recorded call for Nc1cccc(C(=O)Nc2ccc3c(O)c(N=Nc4ccc(N=Nc5ccc(S(=O)(=O)O)cc5)cc4)c(S(=O)(=O)O)cc3c2)c1 ?
OUT: inactive

IN: CC1CCN(CCCCCOc2ccc3oc4ccccc4c(=O)c3c2)CC1 , same question.
OUT: inactive

IN: Next compound up: CCOC(=O)/C=C1\SC(=Nc2ccc(C#N)cc2)N(CCN2C(=O)/C(=C/C(=O)OCC)SC2=Nc2ccc(C#N)cc2)C1=O
OUT: inactive

IN: Repeat with CN1CCN(/C=C2\CC(C(=O)NCc3ccc(Cl)cc3Cl)NC2=O)CC1 (centres undefined)
OUT: inactive

IN: Next record, please: O=C1C(=O)c2c(nc3ccc(Br)cn23)-c2ccccc21
OUT: active

IN: For CCO/C=N/S(=O)(=O)c1cc2c(cc1Cl)NC=NS2(=O)=O then?
OUT: inactive

====

System: COLO 205 colon
assay.summary: NCI-60 one-dose screen, 48 h
protocol.conditions: 10 µM unless noted
This is part of a sample that, as a whole, favours compounds with a hit. Of some 83,000 tested, about 20% had one in any assay. Activity calls are given as the source filed them. The calls were made as follows: active = growth percent below 10; inactive = the rest.
Mark one answer only. Choices: active, inactive

# molecule, qualitative.label
data = [
    ("Nc1c(C(=O)Nc2ccccn2)sc2nc3c(cc12)CCCCC3", "active"),
]

IN: Outcome logged for COc1cc(C(C)c2ccc3c(ccn3C)c2)cc(OC)c1OC (stereo unspecified) in this assay:
OUT: active
